These data points were gathered from the RNAGym collection of RNA variant scans (doi:10.1021/acssynbio.7b00057).

B1: Pistol ribozyme (parent)
chain: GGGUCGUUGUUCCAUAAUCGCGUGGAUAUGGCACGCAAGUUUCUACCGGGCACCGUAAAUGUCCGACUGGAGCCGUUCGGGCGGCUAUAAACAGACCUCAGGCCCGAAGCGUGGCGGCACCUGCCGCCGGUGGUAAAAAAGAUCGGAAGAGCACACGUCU

Variants of: B1
Experiment: aptazyme ON/OFF ratio, guanine; higher = stronger switching; co-transcriptional cleavage with and without guanine
Please respond with reported aptazyme ON/OFF ratio for every item in the list.
Give bare numbers.

Some variants with recorded aptazyme ON/OFF ratio:
mutation: G9U U11A C13A
aptazyme ON/OFF ratio: 1.48
//
mutation: U7C U8G G9A U10A U11C
aptazyme ON/OFF ratio: 1.04
//
mutation: U8G G9U U11A C12A C13A
aptazyme ON/OFF ratio: 1.18
//
mutation: U7G G9U U11A C12U C13U
aptazyme ON/OFF ratio: 1.07
//
mutation: U8C G9A U10G U11C C12U C13U
aptazyme ON/OFF ratio: 1.28

Could you report aptazyme ON/OFF ratio for every entry in the following list?
1. U7C U10C U11C C12A C13U
2. U7C U8C G9U U10A U11C C12U

1. 1.2
2. 1.19
